Where do the numbers come from? From ChEMBL document CHEMBL5370585.

Measured remaining at 20 min, 5 ug/ml of individual entries
- Assay protocol: Stability in mouse plasma assessed as parent compound remaining at 5 ug/ml measured after 20 mins by LC-MS/MS analysis
- Format: ADME, cell-free
- Reported conditions: at 5 µg/mL, read-out: Stability
Return type: number; implicit unit %.

Sample smiles	Value
Cc1cc2c3c(N)nc(N)nc3ccc2n1Cc1nc2ccccc2s1	98.6

Now consider a different compound.
[Q] Need remaining at 20 min, 5 ug/ml of Nc1nc(N)c2c(ccc3c2ccn3Cc2ccc3scnc3c2)n1 , thanks.
[A] 96

====

- System: Staphylococcus aureus
- Assay protocol: Antibacterial activity against methicillin-resistant Staphylococcus aureus ATCC 43300 incubated for 16 to 18 hrs by CLSI based broth dilution method
- Assay type: functional
- Reported conditions: time 16-18 hrs
Measured property: MIC (µg/mL)
Give a bare numeral; the unit µg/mL is implied.

Some solved entries appear below for comparison.
Sample smiles	MIC / µg/mL
COC(=O)c1ccc2nc(Cn3ccc4c5c(N)nc(N)nc5ccc43)sc2c1	2
Nc1nc(N)c2c(ccc3c2ccn3Cc2ccc(-c3ccccc3)cc2)n1	0.5
Cc1cc2c3c(N)nc(N)nc3ccc2n1Cc1nc2ccccc2s1	0.25
Nc1nc(N)c2c(ccc3c2ccn3Cc2ccc3ncsc3c2)n1	0.125
Nc1nc(N)c2c(ccc3c2ccn3Cc2ccc3ccccc3n2)n1	0.03

[Q] Looking for the measured MIC of Nc1nc(N)c2c(ccc3c2ccn3Cc2ccc3nc(N)sc3c2)n1 , can you help?
[A] 2

[Q] Repeat for the following compound: CCOC(=O)c1ccc(Cn2ccc3c4c(N)nc(N)nc4ccc32)c2ccccc12
[A] 0.25

====

- Tested on: Escherichia coli
- Assay protocol: Antibacterial activity against Escherichia coli ATCC 25922 incubated for 16 to 18 hrs by CLSI based broth dilution method
- Type: functional
- Reported conditions: time 16-18 hrs
Measured property: MIC

Reference set, count: 4
Molecule	MIC
Cc1cc2c3c(N)nc(N)nc3ccc2n1Cc1ccc(-c2ccccc2)cc1	> 8 µg/mL
Nc1nc(N)c2c(ccc3c2ccn3Cc2ccc3sc(N)nc3c2)n1	> 8 µg/mL
Nc1nc(N)c2c(ccc3c2ccn3Cc2ccc3cc(C(=O)O)ccc3c2)n1	> 128 µg/mL
Nc1nc(N)c2c(ccc3c2ccn3Cc2ccc(C(=O)O)c3ccccc23)n1	> 8 µg/mL

[Q] Can you look up MIC on Escherichia coli for Nc1nc(N)c2c(ccc3c2cc(-c2ccccc2)n3Cc2nc3ccccc3s2)n1 ?
[A] > 128 µg/mL

[Q] And Nc1nc(N)c2c(ccc3c2ccn3Cc2ccc(-c3ccccc3)cc2)n1 ?
[A] > 128 µg/mL

[Q] Here is the next molecule: COC(=O)c1ccc(Cn2ccc3c4c(N)nc(N)nc4ccc32)c2ccccc12
[A] 2 µg/mL

[Q] Input C[C@H]1COc2c(N3CCN(C)CC3)c(F)cc3c(=O)c(C(=O)O)cn1c23 [LEVOFLOXACIN ANHYDROUS]
[A] ≤ 0.03 µg/mL

[Q] Also COC(=O)c1ccc2nc(Cn3ccc4c5c(N)nc(N)nc5ccc43)sc2c1 , if possible.
[A] > 8 µg/mL

====

- Test system: Escherichia coli
- Assay protocol: Antibacterial activity against Escherichia coli ATCC 25922 incubated for 16 to 18 hrs by CLSI based broth dilution method
- Type: functional
- Reported conditions: time 16-18 hrs
Measured log10 of MIC, listed per entry for reference.
Values below are the log10 of the recorded MIC, with µg/mL as the unit.

[Q] Tell me the measured log10 of MIC of Nc1nc(N)c2c(ccc3c2ccn3Cc2ccc3occc3c2)n1 , please.
[A] -0.90

[Q] Try the molecule Cc1cc2c3c(N)nc(N)nc3ccc2n1Cc1nc2ccccc2s1
[A] 0.00
